# test.target: β-secretase(BACE) (Homo sapiens)
# Construct: purchased Panvera
# experiment.notes: BACE Assay-1 (MCA-substrate, IC50)
# Type: biochemical
# experimental.context: procedure of Example 158; read-out: IC50 μM (158)
measured.parameter: IC50 (µM)
Value expressed in µM; do not type the unit.

A selection of reference data follows.
NC1=Nc2ccc(Oc3cccc(NCC4CCCCC4)c3)cc2CN1CCCCO [Compound 95] = 0.31
NC1=Nc2ccc(Oc3ccccc3)cc2CN1C(CNC(=O)C1CCCCC1)c1ccccc1 (centres unmarked) [Compound 342] = 0.082
CN(C(=O)CCN1Cc2cc(C(=O)c3ccc(F)cc3)ccc2N=C1N)C1CCCC1 [Compound 25] = 5.5
NC1=Nc2ccc(Oc3ccccc3)cc2CN1CCNC(=O)C1(c2ccc(Cl)cc2)CCCC1 [Compound 196] = 0.015

Query :: Quick check: IC50 of NC1=Nc2ccc(Oc3ccccc3)cc2CN1CCNC(=O)C1CCCC1 [Compound 112] ?
Result :: 0.12

Query :: Quick check: IC50 of CN(C(=O)CCN1Cc2cc(C(=O)c3ccccc3)ccc2N=C1N)C1CCCC1 [Compound 24] ?
Result :: 1.8

Query :: Quick check: IC50 of CCCN1Cc2cc(Oc3cccc(NCc4c(C)cc(C)cc4C)c3)ccc2N=C1N [Compound 500] ?
Result :: 0.16

Query :: Quick check: IC50 of CN(C(=O)CCN1Cc2cc(-c3noc4cc(F)ccc34)ccc2N=C1N)C1CCCCC1 [Compound 37] ?
Result :: 12

---

# test.target: β-secretase(BACE) (Homo sapiens, UniProt P56817)
# Construct: purchased Panvera
# Sequence (P56817 46-501): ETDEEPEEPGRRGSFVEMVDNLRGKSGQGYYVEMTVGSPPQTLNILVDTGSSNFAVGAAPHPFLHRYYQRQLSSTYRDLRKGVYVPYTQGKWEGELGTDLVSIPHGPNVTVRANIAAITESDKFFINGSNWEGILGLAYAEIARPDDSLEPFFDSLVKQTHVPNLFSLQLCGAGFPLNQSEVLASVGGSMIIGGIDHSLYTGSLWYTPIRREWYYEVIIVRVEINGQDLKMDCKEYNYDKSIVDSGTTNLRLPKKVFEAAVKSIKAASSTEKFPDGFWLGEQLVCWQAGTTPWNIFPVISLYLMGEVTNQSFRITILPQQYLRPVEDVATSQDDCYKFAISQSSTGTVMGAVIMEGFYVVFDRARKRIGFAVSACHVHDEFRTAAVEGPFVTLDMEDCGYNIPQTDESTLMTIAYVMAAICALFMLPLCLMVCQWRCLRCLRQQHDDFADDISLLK
# experiment.notes: BACE Assay-2 (FS1 substrate, IC50 and Ki)
# Format: biochemical
# experimental.context: procedure of Example 159, FS1 substrate; read-out: Ki μM (159)
Ki under 0.1 µM gets true (1), anything at or over 0.1 µM gets false (0).

NC1=Nc2ccc(-c3ccccc3F)cc2CN1CCC(=O)NC1C2CC3CC(C2)CC1C3 (centres unmarked) = true (1)
NC1=Nc2ccc(Oc3ccccc3)cc2CN1CCNC(=O)C12CC3CC(CC(C3)C1)C2 = false (0)
CN(CCC#N)C(=O)CC[C@@H](C1CCCCC1)N1Cc2cc(-c3ccccc3F)ccc2N=C1N = false (0)
CC(C)C(CC(=O)N(C)C1CCCCC1)N1Cc2cc(Oc3ccccc3)ccc2N=C1N (centres unmarked) = false (0)
NC1=Nc2ccc(Oc3ccccc3)cc2CN1[C@@H](CNC(=O)C1CCCCC1)C1CCCCC1 = true (1)
CC(C)C(=O)NCC(C1CCCCC1)N1Cc2cc(Oc3ccccc3)ccc2N=C1N (centres unmarked) = false (0)

Query :: Given the entry COC(=O)[C@@H](COCc1ccccc1)N(C)C(=O)CC[C@@H](C1CCOCC1)N1Cc2cc(Oc3ccccc3)ccc2N=C1N , would its reported Ki be below 0.1 µM?
Result :: false (0)

Query :: Given the entry CN(C(=O)CC[C@@H](C1CCOCC1)N1Cc2cc(Oc3ccccc3)ccc2N=C1N)[C@H]1CC[C@H](C(=O)O)CC1 , would its reported Ki be below 0.1 µM?
Result :: true (1)

Query :: Given the entry NC1=Nc2ccc(Oc3ccccc3)cc2CN1CCCCC(=O)N(C1CCCCC1)C1CCCCC1 , would its reported Ki be below 0.1 µM?
Result :: false (0)

Query :: Given the entry CCCCC(CC)C(=O)NCC(C1CCCCC1)N1Cc2cc(Oc3ccccc3)ccc2N=C1N (centres unmarked) , would its reported Ki be below 0.1 µM?
Result :: false (0)

Query :: Given the entry CN(C(=O)CCC(CCC(=O)N(C)C1CCCCC1)N1Cc2cc(Oc3ccccc3)ccc2N=C1N)C1CCCCC1 , would its reported Ki be below 0.1 µM?
Result :: false (0)

Query :: Given the entry COc1cccc(OC)c1-c1ccc2c(c1)CN(Cc1cccc(C(=O)N(C)C3CCCCC3)c1)C(N)=N2 , would its reported Ki be below 0.1 µM?
Result :: false (0)

Query :: Given the entry NC1=Nc2ccc(Oc3ccccc3)cc2CN1CCNC(=O)C1CCC1 , would its reported Ki be below 0.1 µM?
Result :: false (0)

Query :: Given the entry COC(=O)[C@H]1CC[C@@H](N(C)C(=O)CC[C@@H](C2CCCCC2)N2Cc3cc(Oc4ccccc4)ccc3N=C2N)CC1 , would its reported Ki be below 0.1 µM?
Result :: false (0)

Query :: Given the entry CC(C)[C@H](CCC(=O)N(C)C1CCCCC1)N1Cc2cc(Oc3ccccc3)ccc2N=C1N , would its reported Ki be below 0.1 µM?
Result :: true (1)

Query :: Given the entry NC1=Nc2ccc(-c3cccc(CO)c3)cc2CN1CCNC(=O)CC1CCCC1 , would its reported Ki be below 0.1 µM?
Result :: false (0)

Query :: Given the entry NC1=Nc2ccc(Oc3ccccc3)cc2CN1CCNC(=O)C1CCCC1 , would its reported Ki be below 0.1 µM?
Result :: false (0)

Query :: Given the entry NC1=Nc2ccc(-c3ccccc3O)cc2CN1CCNC(=O)C1CCCCC1 , would its reported Ki be below 0.1 µM?
Result :: false (0)
